Values compiled from patent US20180185325A1.

Test system: human sebocyte cells
method_summary: MTT cytotoxicity assay in human cultured sebocytes
Assay type: cell-based
Toxicity threshold by entry:

Solved cases (2 shown):
# structure_as_smiles, parameter_measured, measured
records = [
    ("COc1cccc2c(=O)c3c(ccc4ccccc43)oc12", "Toxicity threshold", ">100 µM"),
    ("O=c1c2cccc(O)c2oc2ccc3ccccc3c12", "Toxicity threshold", ">100 µM"),
]

Now for a further compound.
Which Toxicity threshold value is on record for COc1ccc2oc3ccc4ccccc4c3c(=O)c2c1 ?
>50 µM
